# Tested on: A498
# experimental-details: NCI tumour cell line growth inhibition, 48 h
Active and inactive are the calls of the source. Rule as the data show it: active = GI50 up to about 1.1 µM and inactive = higher.
Bench note: report the call from active, inactive

Worked set:
| compound | class-name |
| --- | --- |
| Cc1nnc(N2C(=O)C(=Cc3ccc(Cl)cc3)N=C2c2ccc(Cl)cc2)nc1/C=C\c1ccc(N(C)C)cc1 | inactive |
| CCCOC(=O)C1C(c2ccc(OC)cc2)NC(c2ccc(OC)cc2)C(C(=O)OCCC)S1(=O)=O (stereo not given) | inactive |
| NCCCNCCSSCc1ccccc1CSSCCNCCCN | inactive |
| CC(=O)OC12CC(C)C3(O)C4C=C(C)C(=O)[C@@]4(O)CC(CO)=C[C@H]3C1C2(C)C (stereo not given in full) | active |
| COc1ccc(CC(=O)c2cc(OC)c(OC)cc2C)cc1OC | inactive |
| CC(C)C1CN1CC(O)Cn1ccnc1[N+](=O)[O-] (stereo not given) | inactive |
| COc1ccc(OC)c(N2C(=O)CSC2c2cc(OC)c(OC)c(OC)c2)c1 (stereo not given) | inactive |
| CC(C)c1ccc(/C=C2\N=C(c3ccc([N+](=O)[O-])cc3)OC2=O)cc1 | inactive |
| CSc1c(C#N)c(O)nc(N)c1C(=O)Nc1ccc(C)cc1 | inactive |

Field: next compound
Query string: Please indicate how the test categorized COC1=CC(=O)C=C(OC)C1=O .
Result string: inactive
